System: 941728-121-R-J1-PDC complex spheroid viability;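 note: spheroids exposed to compounds for 7 days before readout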
Test: Anticancer human tumor 941728-121-R-J1-PDC patient-derived lung adenocarcinoma cell line growth inhibition [RAS]
Settings: curve of first compound; second compound 1 µM
Excerpt: RAS pathway inhibitors in Combinations in Complex Spheroids A high-throughput screen of multi-cell type tumor spheroids was designed to identify active combinations of RAS pathway inhibitors and targeted small molecules. Complex spheroids include a stromal component modeled by human endothelial cells (HUVEC) and fibroblasts modeled by human mesenchymal stem cells (MSCs). […] Compounds. […] If the clinical Cmax for an agent had not been determined, the highest concentration tested was 10 microM. […]
pIC50: −log10 of the molar value.
measurement.type: pIC50

compound: C=CC(=O)Nc1cc(Nc2nccc(-c3cn(C)c4ccccc34)n2)c(OC)cc1N(C)CCN(C)C + C=CC(=O)N1CCN(c2nc(OCC3CCCN3C)nc3c(F)c(-c4nc(N)cc(C)c4C(F)(F)F)c(Cl)cc23)C(C)C1
observed.value: > 8.50
//
compound: C[C@@H](NC(=O)c1ncnc(N)c1Cl)c1ncc(C(=O)Nc2cc(C(F)(F)F)c(Cl)cn2)s1 + C#Cc1c(F)ccc2cc(O)cc(-c3ncc4c(N5CC6CCC(C5)N6)nc(OCC56CCCN5CC(F)C6)nc4c3F)c12
observed.value: > 7.50
//
compound: CCN1CCN(Cc2ccc(Nc3ncc(F)c(-c4cc(F)c5nc(C)n(C(C)C)c5c4)n3)nc2)CC1 + C=CC(=O)N1CCN(c2nc(OCC3CCCN3C)nc3c(F)c(-c4nc(N)cc(C)c4C(F)(F)F)c(Cl)cc23)C(C)C1
observed.value: > 8.50
//
compound: CC1(C)CCC(Nc2ncc(C(F)(F)F)c(-c3c[nH]c4c(P(C)(C)=O)c(C#N)ccc34)n2)CN1 (stereo not drawn) + C=CC(=O)N1CCN(c2nc(OCC3CCCN3C)nc3c(F)c(-c4nc(N)cc(C)c4C(F)(F)F)c(Cl)cc23)C(C)C1
observed.value: > 9.02

Fill in the blank: the reported pIC50 of CC(=O)OC12COC1CC(O)C1(C)C(=O)C(O)C3=C(C)C(OC(=O)C(O)C(NC(=O)OC(C)(C)C)c4ccccc4)CC(O)(C(OC(=O)c4ccccc4)C21)C3(C)C (stereo not drawn) + C#Cc1c(F)ccc2cc(O)cc(-c3ncc4c(N5CC6CCC(C5)N6)nc(OCC56CCCN5CC(F)C6)nc4c3F)c12 is ____.
> 7.50

Fill in the blank: the reported pIC50 of NC1c2ccccc2OC12CCN(c1cnc3c(N4CCCc5ncccc54)n[nH]c3n1)CC2 (stereo not drawn) + C#Cc1c(F)ccc2cc(O)cc(-c3ncc4c(N5CC6CCC(C5)N6)nc(OCC56CCCN5CC(F)C6)nc4c3F)c12 is ____.
> 7.50

Fill in the blank: the reported pIC50 of CC(=O)OC12COC1CC(O)C1(C)C(=O)C(O)C3=C(C)C(OC(=O)C(O)C(NC(=O)OC(C)(C)C)c4ccccc4)CC(O)(C(OC(=O)c4ccccc4)C21)C3(C)C (stereo not drawn) + C=CC(=O)N1CCN(c2nc(OCC3CCCN3C)nc3c(F)c(-c4nc(N)cc(C)c4C(F)(F)F)c(Cl)cc23)C(C)C1 is ____.
> 7.50

Fill in the blank: the reported pIC50 of Cc1nc(N2CCC3(CC2)COC(C)C3N)c(CO)nc1Sc1ccnc(N)c1Cl (stereo not drawn) + C#Cc1c(F)ccc2cc(O)cc(-c3ncc4c(N5CC6CCC(C5)N6)nc(OCC56CCCN5CC(F)C6)nc4c3F)c12 is ____.
> 7.50
